pIC50: −log10 of the molar value.
Here's a batch of compounds along with measured pIC50 for EGFR (human), P00533 [WT].
Measured Property: pIC50

C=CC(=O)NCc1coc(-c2c(N)ncnc2Nc2ccc(Oc3cc(Cl)ccc3Cl)c(Cl)c2)n1
8.41
CN(C)C/C=C/C(=O)NCc1coc(-c2cncnc2Nc2ccc(OCc3ccccn3)c(Cl)c2)n1
8.35
C=CC(=O)NCc1coc(-c2cncnc2Nc2ccc(OCc3ccccn3)c(Cl)c2)n1
8.41

---

- Study System: EGFR (human), P00533 [WT]
- Sequence (P00533 whole entry, looked up): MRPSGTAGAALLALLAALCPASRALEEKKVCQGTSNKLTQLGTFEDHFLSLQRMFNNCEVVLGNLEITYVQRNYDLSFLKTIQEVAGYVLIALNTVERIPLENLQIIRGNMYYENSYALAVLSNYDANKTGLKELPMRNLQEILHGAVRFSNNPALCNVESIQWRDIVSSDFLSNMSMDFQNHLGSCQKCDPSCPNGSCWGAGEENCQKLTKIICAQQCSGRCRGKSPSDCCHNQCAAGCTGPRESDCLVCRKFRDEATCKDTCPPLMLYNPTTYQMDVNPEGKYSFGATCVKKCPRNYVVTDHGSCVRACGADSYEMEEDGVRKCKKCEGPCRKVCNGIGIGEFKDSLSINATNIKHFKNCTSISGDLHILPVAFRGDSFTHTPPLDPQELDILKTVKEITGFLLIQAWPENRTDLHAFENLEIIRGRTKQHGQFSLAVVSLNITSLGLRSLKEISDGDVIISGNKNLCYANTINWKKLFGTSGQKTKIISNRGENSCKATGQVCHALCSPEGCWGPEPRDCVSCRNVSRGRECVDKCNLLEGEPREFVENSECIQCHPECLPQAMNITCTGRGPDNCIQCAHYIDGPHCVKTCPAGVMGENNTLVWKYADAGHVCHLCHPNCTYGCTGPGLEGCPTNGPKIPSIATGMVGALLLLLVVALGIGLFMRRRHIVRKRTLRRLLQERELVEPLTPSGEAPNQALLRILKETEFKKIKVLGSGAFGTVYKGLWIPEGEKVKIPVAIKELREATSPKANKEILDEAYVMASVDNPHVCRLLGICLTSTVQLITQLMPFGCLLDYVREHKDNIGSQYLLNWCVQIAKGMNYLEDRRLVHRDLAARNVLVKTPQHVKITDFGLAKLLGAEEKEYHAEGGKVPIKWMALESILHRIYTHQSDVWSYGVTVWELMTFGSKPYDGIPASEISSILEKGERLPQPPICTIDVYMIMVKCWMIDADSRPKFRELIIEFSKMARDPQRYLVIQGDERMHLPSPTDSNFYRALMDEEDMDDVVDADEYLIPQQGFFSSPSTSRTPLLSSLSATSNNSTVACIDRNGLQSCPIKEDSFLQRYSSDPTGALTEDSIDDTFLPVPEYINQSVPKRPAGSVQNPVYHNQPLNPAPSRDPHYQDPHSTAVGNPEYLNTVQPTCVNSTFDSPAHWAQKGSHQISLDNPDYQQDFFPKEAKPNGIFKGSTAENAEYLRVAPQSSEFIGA
Measured Property: IC50 (nM)

C=C(CN(C)C)C(=O)NCc1cc(-c2cncnc2Nc2ccc(OCc3ccccn3)c(Cl)c2)on1
8.8
C=CC(=O)NCc1coc(-c2c(N)ncnc2Nc2ccc(Oc3ccccn3)c(Cl)c2)n1
4.2
C=CC(=O)NCc1coc(-c2c(N)ncnc2Nc2ccc(Oc3ccccc3)c(Cl)c2)n1
7
C=CC(=O)NCc1coc(-c2c(N)ncnc2Nc2ccc(Oc3ccnn3C)c(Cl)c2)n1
8.4
C=CC(=O)NCc1coc(-c2c(N)ncnc2Nc2ccc(OCc3ccccn3)cc2F)n1
8.5

1. C=CC(=O)NCc1cc(-c2cncnc2Nc2ccc(OCc3ccccn3)c(Cl)c2)on1
2. C=CC(=O)NCc1coc(-c2c(NC(C)=O)ncnc2Nc2ccc(Oc3cc(C(F)(F)F)nn3C)c(Cl)c2)n1
3. C=C(CN(C)C)C(=O)NCc1coc(-c2c(N)ncnc2Nc2ccc(OCc3ccccn3)c(Cl)c2)n1
4. CN(C)C/C=C/C(=O)NCc1coc(-c2c(N)ncnc2Nc2ccc(OCc3ccccn3)c(Cl)c2)n1
Query :: Put the entries in order of IC50, starting with the largest number. Lab note: final answer is the ordered label list.
Result :: 2, 1, 4, 3

---

Here's a batch of compounds along with measured IC50 for EGFR (human) (UniProt P00533).
Measured Property: IC50 (nM)

I. C=CC(=O)N(C)Cc1cc(-c2cncnc2Nc2ccc(OCc3cccc(F)c3)c(Cl)c2)on1
II. C=CC(=O)NCc1coc(-c2c(N)ncnc2Nc2ccc(Sc3nccn3C)c(Cl)c2)n1
III. CN(C)C/C=C/C(=O)NCc1coc(-c2c(N)ncnc2Nc2ccc(OCc3ccccn3)c(Cl)c2)n1
IV. C=C(CN(C)C)C(=O)NCc1coc(-c2cncnc2Nc2ccc(F)c(Cl)c2)n1
Query :: Sort low-to-high on IC50, please. Lab note: final answer is the ordered label list.
Result :: III, I, IV, II
(III: 29 nM, I: 68.7 nM, IV: 98.6 nM, II: 424 nM)

---

- Study System: EGFR (human), P00533 [WT]
Measured Property: IC50 (nM)

C=CC(=O)NCc1cc(-c2cncnc2Nc2ccc(OCc3cccc(F)c3)c(Cl)c2)on1
10.3
C=CC(=O)NCc1coc(-c2c(N)ncnc2Nc2ccc(OCc3ccccn3)c(F)c2)n1
4.9
C=C(CN1CCOCC1)C(=O)NCc1cc(-c2cncnc2Nc2ccc(OCc3ccccn3)c(Cl)c2)on1
21.3

a. C=CC(=O)NCc1coc(-c2c(N)ncnc2Nc2ccc(OCc3cccc(F)c3)c(Cl)c2)n1
b. C=C(CN(C)C)C(=O)NCc1coc(-c2cncnc2Nc2ccc(OCc3ccccn3)c(Cl)c2)n1
Query :: // pick larger IC50 from pair: a vs b Please respond with the label that marks your chosen entry.
Result :: a

---

Here's a batch of molecules along with measured IC50 for EGFR (human).
Measured Property: IC50 (nM)

Below, each entry is followed by its recorded IC50 result.
CN(C)C/C=C/C(=O)NCc1cc(-c2cncnc2Nc2ccc(OCc3ccccn3)c(Cl)c2)on1
5
C=C(CN(C)C)C(=O)NCc1coc(-c2c(N)ncnc2Nc2ccc(F)c(Cl)c2)n1
26
C=CC(=O)NCc1cc(-c2cncnc2Nc2ccc(OCc3ccccn3)c(Cl)c2)on1
2

a. C=CC(=O)NCc1coc(-c2c(N)ncnc2Nc2ccc(Oc3ccnn3C)c(Cl)c2)n1
b. COCCC(=O)NCc1coc(-c2c(N)ncnc2Nc2ccc(Oc3ccccc3F)c(Cl)c2)n1
c. CN(C)C/C=C/C(=O)NCc1coc(-c2c(N)ncnc2Nc2ccc(Oc3ccccc3)c(Cl)c2)n1
d. O=C(/C=C\CO)NCc1cc(-c2cncnc2Nc2ccc(OCc3ccccn3)c(Cl)c2)on1
e. C=CC(=O)N1CCCC(c2cc(-c3cncnc3Nc3ccc(OCc4cccc(F)c4)c(Cl)c3)on2)C1 (centres undefined)
Query :: Please order the records by their reported IC50, lowest number first. Lab note: final answer is the ordered label list.
Result :: a, c, b, d, e
(a: 8.4 nM, c: 78.5 nM, b: 291 nM, d: 618 nM, e: 1040 nM)
